system: osteoclast differentiation; assay: Inhibitory effects on osteoclast differentiation (co-culture of bone marrow cells with osteoblast, TRAP staining); assay type: cell-based, mice; conditions: Mus musculus, Osteoclast, 168 h; 1 m; co-culture of bone marrow cells and osteoblast, 7 days, TRAP-positive osteoclasts versus controls; read-out: % inhibitory activity on osteoclastogenesis
Cut-off 80% on inhibition at 1 µM, inclusive. At or above means Condition met; below means Condition not met.

# bool: inhibition at 1 µM of "CCCCc1sc(N(C)CCO)nc1-c1ccc(OCCCCCOc2ccc(C(=N)NO)cc2)cc1" >= 80%
Condition not met

Exam item: decide whether the reported inhibition at 1 µM for "Cc1nc(-c2ccc(OCc3ccc(COc4ccc(C(=N)NO)cc4)cc3)cc2)c(C(C)C)s1" is at least 80%.
Condition met

Evaluate Cc1nc(-c2ccc(OCC(C)NCCOc3ccc(C(=N)NO)cc3)cc2)c(C(C)C)s1 (centres unmarked) : inhibition at 1 µM at minimum 80%?
Condition not met

# check: inhibition at 1 µM of "N=C(NO)c1ccc(OCCCCCOc2ccc(-c3nc(N)sc3CCCl)cc2)cc1" is greater than or equal to 80%
Condition met

Is it the case that "CCc1sc(NC)nc1-c1ccc(OCCCCCOc2ccc(C(=N)NO)cc2)cc1" has inhibition at 1 µM reaching or exceeding 80%?
Condition not met

Check the entry "C=Cc1sc(C)nc1-c1ccc(OCCCCCOc2ccc(C(=N)NO)cc2)cc1" : does inhibition at 1 µM equal or exceed 80%?
Condition met

---

As shown below, each of these compounds has a reported inhibition at 1 µM value.
test system: osteoclast differentiation; assay: Inhibitory effects on osteoclast differentiation (co-culture of bone marrow cells with osteoblast, TRAP staining); type: cell-based, mice; conditions: Mus musculus, Osteoclast, 168 h; 1 m; co-culture of bone marrow cells and osteoblast, 7 days, TRAP-positive osteoclasts versus controls; read-out: % inhibitory activity on osteoclastogenesis
Please state the value followed by its unit.

Look up inhibition at 1 µM of "CNc1nc(-c2ccc(OCCCCCOc3ccc(C(=N)NO)cc3)cc2)c(C(C)C)s1" and report it.
25.4%

Using known records, supply inhibition at 1 µM for "COCCN(CCOC)c1nc(-c2ccc(OCCCCCOc3ccc(C(=N)NO)cc3)cc2)c(C)s1"
55.8%

Continuing:
Give reported inhibition at 1 µM value for "Cc1sc(N2CCOCC2)nc1-c1ccc(OCCCCCOc2ccc(C(=N)NO)cc2)cc1"
66.9%
